measurement-target: amyloid β-protein (Homo sapiens)
Sequence (P05067 672-713 limits assumed): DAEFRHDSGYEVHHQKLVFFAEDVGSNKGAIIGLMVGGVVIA
value-type: Kd (µM)

molecule	quantitative-result
Cc1ccc(C(=O)/C=C/c2ccc(N)cc2)o1 [control]	1.59
